B1: Zinc finger MYM-type protein 6, residues 427 to 504; numbered along this chain, O95789 (parent)
chain: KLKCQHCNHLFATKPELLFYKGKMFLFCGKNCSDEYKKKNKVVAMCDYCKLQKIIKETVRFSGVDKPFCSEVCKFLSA

Variants of: B1
Experiment: abundance fitness (aPCA) (normalised: wild type 0, dead -1); higher = more abundant; growth selection in yeast, the domain comes from the species named
Conditions: Homo sapiens
property measured: abundance fitness
Give bare numbers.

Below are worked cases with known answers.
{"columns": ["seq", "abundance fitness"],
 "data": [
  ["KLKCQHCNHLFATKPELLFYKGWMFLFCGKNCSDEYKKKNKVVAMCDYCKLQKIIKETVRFSGVDKPFCSEVCKFLSA [K23W]", -0.419],
  ["KLKCQHCNHLFATKPELLFYKGKQFLFCGKNCSDEYKKKNKVVAMCDYCKLQKIIKETVRFSGVDKPFCSEVCKFLSA [M24Q]", 0.101],
  ["KLKCQHCNHLFATKPELLFYKGKMFLFCGKNCSDEYKKKNKVVAWCDYCKLQKIIKETVRFSGVDKPFCSEVCKFLSA [M45W]", -0.842],
  ["KLKCQHCNHLFATKPELLFYKGKMFLFCGKNCSDEYKKKNKVVAMCDYCKLQKIIKETVRFSGVDKLFCSEVCKFLSA [P67L]", -0.354],
  ["KLKCQHCNHLFATKPELLFYKGKMFLFCGKNCSDEYKKKNKVVAMCDYCKLQKGIKETVRFSGVDKPFCSEVCKFLSA [I54G]", 0.238]
]}

Respectfully, I request abundance fitness for each entry included below.
1. KLKCQHCNHLFATKPELLFYKGKMFLFCGKNCSDEYKKKNKVVAMCDYCKLQKIIKETVRFSGVDKPFCSEVCKYLSA [F75Y]
2. KLKCQHCNHLFATKPELLFYKGKMFLFCGKNCSDEYKKKNKVVWMCDYCKLQKIIKETVRFSGVDKPFCSEVCKFLSA [A44W]
3. KLKCQHCNHLFATKPELLFYKGKMFLFCGKNCSDEYKKKNKVVAMCDYCKLQKIIKETVRFSGVDKPFCSERCKFLSA [V72R]
4. KLKCQHCNHLFATKPELLFYKGKMFLFCGKNCSDEYDKKNKVVAMCDYCKLQKIIKETVRFSGVDKPFCSEVCKFLSA [K37D]
5. KLKCQHCNHLFATKPELLFYKGKDFLFCGKNCSDEYKKKNKVVAMCDYCKLQKIIKETVRFSGVDKPFCSEVCKFLSA [M24D]
6. KLKCQHCNHLFATKPELLFYKGKMFLFCGKNCSDEYKKKNKVVAMCDYCKLQKIIKETVRTSGVDKPFCSEVCKFLSA [F61T]

[-0.699, -0.558, 0.411, -0.057, 0, 0.348]

Hey, just so you know, these numbers are from the Human Domainome abundance scans (Beltran et al. 2025).
